The reported measurements were obtained from ChEMBL document CHEMBL3611968.

Assay: Cmax in mouse at 100 mg/kg, po
Assay type: ADME, organism-based
Set-up: dose 100 mg/kg, route oral
Conditions: in vivo
readout.label: Cmax (ng/mL)
# value in ng/mL; strip the unit string

O=S(=O)(NCCCN1c2ccccc2CCc2ccc(Cl)cc21)c1ccc(OC(F)(F)F)cc1: 1940

Next item in the queue.
I would be grateful if you could share the reported Cmax for O=S(=O)(NC[C@H](O)CN1c2ccccc2CCc2ccccc21)c1ccc(OC(F)(F)F)cc1 .
4880

----------
Test: Bioavailability in mouse at 100 mg/kg, ip administered through DMA/solutol/water
Type: ADME, organism-based
Settings: in vivo
readout.label: bioavailability (%)
Report as a plain number; the unit % is understood.

O=S(=O)(NCCCN1c2ccccc2CCc2ccc(Cl)cc21)c1ccc(OC(F)(F)F)cc1: 34

Proceed to the following item.
Please look up its bioavailability: O=S(=O)(NC[C@H](O)CN1c2ccccc2CCc2ccccc21)c1ccc(OC(F)(F)F)cc1
94

----------
Assay: Clearance in mouse at 1 mg/kg, iv
Format: ADME, organism-based
Conditions: in vivo
readout.label: clearance (mL/min/kg)
Note: unit mL/min/kg is implicit; provide only the numeric part.

Some entries whose results are on file:
O=S(=O)(NC[C@H](O)CN1c2ccccc2CCc2ccccc21)c1ccc(OC(F)(F)F)cc1: 44
Cc1ccc(S(=O)(=O)NCCCN2c3ccccc3Sc3ccc(Cl)cc32)cc1: 11.1

Form field: reported clearance of O=S(=O)(NCCCN1c2ccccc2CCc2ccc(Cl)cc21)c1ccc(OC(F)(F)F)cc1
42

I'd like to know its clearance. The compound in question is COC(=O)NCCCN1c2ccccc2Sc2ccc(Cl)cc21
52.5

----------
Assay: Tmax in mouse at 100 mg/kg, po
Type: ADME, organism-based
Details: in vivo
readout.label: Tmax

Would you kindly share the measured Tmax for O=S(=O)(NC[C@H](O)CN1c2ccccc2CCc2ccccc21)c1ccc(OC(F)(F)F)cc1 ?
2 h

Recorded Tmax for O=S(=O)(NCCCN1c2ccccc2CCc2ccc(Cl)cc21)c1ccc(OC(F)(F)F)cc1 , please?
2 h

----------
Experiment: AUClast in mouse at 100 mg/kg, po
Assay type: ADME, organism-based
Conditions: in vivo
readout.label: AUC(0-t)
Please answer using the number first and the unit second.

O=S(=O)(NCCCN1c2ccccc2CCc2ccc(Cl)cc21)c1ccc(OC(F)(F)F)cc1: 6790 ng·h/mL

# ---- query molecule ----
Query (molecule): O=S(=O)(NC[C@H](O)CN1c2ccccc2CCc2ccccc21)c1ccc(OC(F)(F)F)cc1 ; field requested: AUC(0-t)
18500 ng·h/mL

----------
Target: D(3) dopamine receptor (Homo sapiens)
Assay: Binding affinity to dopamine D3 receptor (unknown origin) at 0.1 mM by radioligand displacement assay relative to control
readout.label: inhibition

Solved entries:
COC(=O)NCCCN1c2ccccc2CCc2ccc(Cl)cc21: < 5%
CN1CCN(CCCN2c3ccccc3Sc3ccc(C(F)(F)F)cc32)CC1 [TRIFLUOPERAZINE]: > 95%
Cc1ccc(S(=O)(=O)NCCCN2c3ccccc3CCc3ccc(Cl)cc32)cc1: < 5%

# next molecule below
Bench note: what inhibition did COC(=O)NCCCN1c2ccccc2Sc2ccc(Cl)cc21 show?
< 5%

----------
Assay: AUCinfinity in mouse at 100 mg/kg, ip administered through DMA/solutol/water
Type: ADME, organism-based
Design: dose 100 mg/kg, route intraperitoneal, time infinity
Details: in vivo
Each entry below lists one item and its recorded AUC(0-inf) value.
Hi! Could you send only the number? It should be in ng·h/mL, unit omitted.

O=S(=O)(NC[C@H](O)CN1c2ccccc2CCc2ccccc21)c1ccc(OC(F)(F)F)cc1: 34700

Next:
Quick one: AUC(0-inf) of O=S(=O)(NCCCN1c2ccccc2CCc2ccc(Cl)cc21)c1ccc(OC(F)(F)F)cc1 ?
14100

----------
Experiment: Cmax in mouse at 100 mg/kg, ip administered through DMSO
Format: ADME, organism-based
Parameters: dose 100 mg/kg, route intraperitoneal
Conditions: in vivo
readout.label: Cmax (ng/mL)
Report only the number, with the unit ng/mL understood.

I'd like to know its Cmax. The compound in question is O=S(=O)(NCCCN1c2ccccc2CCc2ccc(Cl)cc21)c1ccc(OC(F)(F)F)cc1
3100

----------
// values below are reported AUC(0-t)
Assay: AUClast in mouse at 25 mg/kg, po
Format: ADME, organism-based
Conditions: in vivo
Answer format: numeric, ng·h/mL implied, no suffix.

AUC(0-t) lookup needed for O=S(=O)(NCCCN1c2ccccc2CCc2ccc(Cl)cc21)c1ccc(OC(F)(F)F)cc1 , thanks.
1380

Consider the compound shown here: O=S(=O)(NC[C@H](O)CN1c2ccccc2CCc2ccccc21)c1ccc(OC(F)(F)F)cc1 What is its recorded AUC(0-t)?
3300

----------
Each record here notes measured AUC(0-t).
Assay: AUClast in mouse at 1 mg/kg, iv
Type: ADME, organism-based
Conditions: in vivo
# number only, unit ng·h/mL dropped from output

Some compounds with recorded AUC(0-t):
O=S(=O)(NCCCN1c2ccccc2CCc2ccc(Cl)cc21)c1ccc(OC(F)(F)F)cc1: 375
COC(=O)NCCCN1c2ccccc2Sc2ccc(Cl)cc21: 310
O=S(=O)(NC[C@H](O)CN1c2ccccc2CCc2ccccc21)c1ccc(OC(F)(F)F)cc1: 370

Looking for the measured AUC(0-t) of Cc1ccc(S(=O)(=O)NCCCN2c3ccccc3Sc3ccc(Cl)cc32)cc1 , can you help?
1480

----------
Biological target: D(4) dopamine receptor (Homo sapiens) (UniProt P21917)
Sequence (whole entry): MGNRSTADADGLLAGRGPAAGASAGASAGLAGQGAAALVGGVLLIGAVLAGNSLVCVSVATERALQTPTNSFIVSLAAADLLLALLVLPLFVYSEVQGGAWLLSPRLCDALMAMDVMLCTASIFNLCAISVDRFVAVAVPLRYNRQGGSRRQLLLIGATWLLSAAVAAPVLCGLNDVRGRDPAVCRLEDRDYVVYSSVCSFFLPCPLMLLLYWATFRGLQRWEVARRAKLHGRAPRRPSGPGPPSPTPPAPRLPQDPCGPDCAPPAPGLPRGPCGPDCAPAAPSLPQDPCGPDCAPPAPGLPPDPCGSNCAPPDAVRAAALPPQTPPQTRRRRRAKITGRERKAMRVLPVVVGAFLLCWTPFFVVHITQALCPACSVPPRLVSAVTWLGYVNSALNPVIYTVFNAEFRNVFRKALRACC
Assay: Binding affinity to dopamine D4 receptor (unknown origin) at 0.1 mM by radioligand displacement assay relative to control
readout.label: inhibition

Consider the following illustrative entries.
Cc1ccc(S(=O)(=O)NCCCN2c3ccccc3CCc3ccc(Cl)cc32)cc1: < 5%
COC(=O)NCCCN1c2ccccc2Sc2ccc(Cl)cc21: < 5%
CN1CCN(CCCN2c3ccccc3Sc3ccc(C(F)(F)F)cc32)CC1: 73%

Fill in the blank: the reported inhibition of COC(=O)NCCCN1c2ccccc2CCc2ccc(Cl)cc21 is ____.
< 5%

----------
Assay: Oral bioavailability in mouse at 100 mg/kg
Type: ADME, organism-based
Conditions: in vivo
Measured bioavailability, listed per entry.
Hi! Could you send only the number? It should be in %, unit omitted.

O=S(=O)(NC[C@H](O)CN1c2ccccc2CCc2ccccc21)c1ccc(OC(F)(F)F)cc1: 50

# lookup: bioavailability of O=S(=O)(NCCCN1c2ccccc2CCc2ccc(Cl)cc21)c1ccc(OC(F)(F)F)cc1
18

----------
# maps each entry to its Vd
Assay: Volume of distribution at steady state in mouse at 1 mg/kg, iv
Type: ADME, organism-based
Conditions: in vivo, read-out: Vdss
Respond with the bare value in L/kg.

Below are worked cases with known answers.
O=S(=O)(NC[C@H](O)CN1c2ccccc2CCc2ccccc21)c1ccc(OC(F)(F)F)cc1: 1.61
Cc1ccc(S(=O)(=O)NCCCN2c3ccccc3Sc3ccc(Cl)cc32)cc1: 0.72
O=S(=O)(NCCCN1c2ccccc2CCc2ccc(Cl)cc21)c1ccc(OC(F)(F)F)cc1: 1.31

So what does the record say about Vd for COC(=O)NCCCN1c2ccccc2Sc2ccc(Cl)cc21 ?
1.76

----------
Below, each entry is listed alongside its reported Tmax.
Assay: Tmax in mouse at 25 mg/kg, po
Type: ADME, organism-based
Conditions: in vivo
API: value field is a number in h; no unit string.

O=S(=O)(NC[C@H](O)CN1c2ccccc2CCc2ccccc21)c1ccc(OC(F)(F)F)cc1: 1

Fill in the blank: the reported Tmax of O=S(=O)(NCCCN1c2ccccc2CCc2ccc(Cl)cc21)c1ccc(OC(F)(F)F)cc1 is ____.
1

----------
Measured half-life, listed per entry.
Test: Half life in mouse at 1 mg/kg, ip
Type: ADME, organism-based
Conditions: in vivo
Use h as the unit, but write only the number.

Cc1ccc(S(=O)(=O)NCCCN2c3ccccc3Sc3ccc(Cl)cc32)cc1: 4.35

Return reported half-life; argument: COC(=O)NCCCN1c2ccccc2Sc2ccc(Cl)cc21
2.87
